Ref: patent US9029337B2

Tested on: human Factor 7 mRNA
procedureText: Antisense inhibition of human Factor 7 mRNA in HepB3 cells, 50 nM antisense oligonucleotide, lipofectin
Type: cell-based
conditionNotes: Table 1, 50 nM, lipofectin, approximately 24 hours, relative to untreated control cells
Strand notation (5' to 3'): a small letter for the sugar, then the base; units joined by * are phosphorothioate-linked, units joined directly phosphodiester-linked; [ ] holds rarer units or linkages, { } end groups; capitals alone tell only the bases. e = 2'-O-(2-methoxyethyl) (MOE); [5mC] = 5-methylcytosine; d = 2'-deoxy (DNA)
measurementLabel: % Inhibition (%)

[[record]]
substance = "407924 (antisense eG*eA*eT*eT*eT*dG*dG*dT*dG*d[5mC]*d[5mC]*dA*dG*dG*dA*e[5mC]*eA*eG*eT*eT) [compound 407924]"
measuredresult = 68

[[record]]
substance = "407917 (antisense eA*e[5mC]*eA*e[5mC]*e[5mC]*d[5mC]*d[5mC]*dA*dA*dA*dG*dT*dG*dG*d[5mC]*e[5mC]*e[5mC]*eA*e[5mC]*eG) [compound 407917]"
measuredresult = 70

[[record]]
substance = "407599 (antisense e[5mC]*e[5mC]*eT*eG*eG*dG*dA*dG*dA*d[5mC]*d[5mC]*dA*dT*dG*dA*eT*eG*eA*eA*eA) [compound 407599]"
measuredresult = 73


* * *

Tested on: human Factor 7 mRNA
procedureText: Dose-dependent antisense inhibition of human Factor 7 in HepB3 cells, electroporation
Format: cell-based
conditionNotes: 6.25 μM, approx. 16 hours (Table 15, Example 7)
Strand notation (5' to 3'): a small letter for the sugar, then the base; units joined by * are phosphorothioate-linked, units joined directly phosphodiester-linked; [ ] holds rarer units or linkages, { } end groups; capitals alone tell only the bases. e = 2'-O-(2-methoxyethyl) (MOE); [5mC] = 5-methylcytosine; d = 2'-deoxy (DNA)
measurementLabel: percent inhibition of Factor 7 mRNA, relative to untreated control cells (%)

[[record]]
substance = "422130 (antisense eG*e[5mC]*e[5mC]*eT*eG*dA*dG*dG*d[5mC]*d[5mC]*dA*dG*d[5mC]*dA*dG*eA*eT*e[5mC]*eA*e[5mC]) [compound 422130]"
measuredresult = 29

[[record]]
substance = "422086 (antisense eT*eG*e[5mC]*eA*eT*dG*dG*dT*dG*dA*dT*dG*d[5mC]*dT*dT*e[5mC]*eT*eG*eA*eA) [compound 422086]"
measuredresult = 34

[[record]]
substance = "422096 (antisense eA*eG*eA*e[5mC]*eA*dA*dT*dG*dG*dT*d[5mC]*dA*dG*dG*dG*e[5mC]*eT*eG*eG*eT) [compound 422096]"
measuredresult = 30

[[record]]
substance = "422152 (antisense eA*eT*eG*d[5mC]*dA*dT*dG*dG*dT*dG*dA*dT*dG*d[5mC]*dT*dT*d[5mC]*eT*eG*eA) [compound 422152]"
measuredresult = 22

[[record]]
substance = "422183 (antisense eG*e[5mC]*eG*d[5mC]*d[5mC]*dA*d[5mC]*d[5mC]*d[5mC]*dG*d[5mC]*d[5mC]*dG*dG*d[5mC]*dT*d[5mC]*eT*eG*e[5mC]) [compound 422183]"
measuredresult = 28


* * *

Tested on: human Factor 7 mRNA
procedureText: Dose-dependent antisense inhibition of human Factor 7 in HepB3 cells, electroporation
Format: cell-based
conditionNotes: 50 μM, approx. 16 hours (Table 16, Example 8 confirmation)
Strand notation (5' to 3'): a small letter for the sugar, then the base; units joined by * are phosphorothioate-linked, units joined directly phosphodiester-linked; [ ] holds rarer units or linkages, { } end groups; capitals alone tell only the bases. e = 2'-O-(2-methoxyethyl) (MOE); [5mC] = 5-methylcytosine; d = 2'-deoxy (DNA)
percent inhibition of Factor 7 mRNA, relative to untreated control cells values for the substances below.
measurementLabel: percent inhibition of Factor 7 mRNA, relative to untreated control cells (%)

[[record]]
substance = "422142 (antisense eG*eA*eG*eT*eT*d[5mC]*dT*dG*d[5mC]*dA*dG*dG*dA*dG*d[5mC]*eG*eG*e[5mC]*e[5mC]*eT) [compound 422142]"
resultunit = "%"
measuredresult = 65

[[record]]
substance = "422229 (antisense eA*eT*dG*d[5mC]*dA*dT*dG*dG*dT*dG*dA*dT*dG*d[5mC]*dT*eT*e[5mC]*eT*eG*eA) [compound 422229]"
resultunit = "%"
measuredresult = 90

[[record]]
substance = "407939 (antisense eT*eG*e[5mC]*eA*eG*d[5mC]*d[5mC]*d[5mC]*dG*dG*d[5mC]*dA*d[5mC]*d[5mC]*d[5mC]*eA*eG*e[5mC]*eG*eA) [compound 407939]"
resultunit = "%"
measuredresult = 81

[[record]]
substance = "422183 (antisense eG*e[5mC]*eG*d[5mC]*d[5mC]*dA*d[5mC]*d[5mC]*d[5mC]*dG*d[5mC]*d[5mC]*dG*dG*d[5mC]*dT*d[5mC]*eT*eG*e[5mC]) [compound 422183]"
resultunit = "%"
measuredresult = 64

[[record]]
substance = "422087 (antisense e[5mC]*eA*eT*eG*e[5mC]*dA*dT*dG*dG*dT*dG*dA*dT*dG*d[5mC]*eT*eT*e[5mC]*eT*eG) [compound 422087]"
resultunit = "%"
measuredresult = 80

